System: K12877-001-R-J1-PDC complex spheroid viability
Experiment: Anticancer human tumor K12877-001-R-J1-PDC patient-derived lung adenocarcinoma cell line growth inhibition [RAS]
Settings: second compound 0.1 µM; first compound 0.316 µM; stronger effect = lower value
experimental-readout: viability, T/C

# compound, val
measured = [
    ("Nc1ccn(C2OC(CO)C(O)C2(F)F)c(=O)n1 (stereo unspecified) + C#Cc1c(F)ccc2cc(O)cc(-c3ncc4c(N5CC6CCC(C5)N6)nc(OCC56CCCN5CC(F)C6)nc4c3F)c12", "5.86%"),
    ("Cc1nc(N2CCC3(CC2)COC(C)C3N)c(CO)nc1Sc1ccnc(N)c1Cl (stereo unspecified) + C#Cc1c(F)ccc2cc(O)cc(-c3ncc4c(N5CC6CCC(C5)N6)nc(OCC56CCCN5CC(F)C6)nc4c3F)c12", "92%"),
    ("NC1c2ccccc2OC12CCN(c1cnc3c(N4CCCc5ncccc54)n[nH]c3n1)CC2 (stereo unspecified) + C=CC(=O)N1CCN(c2nc(OCC3CCCN3C)nc3c(F)c(-c4nc(N)cc(C)c4C(F)(F)F)c(Cl)cc23)C(C)C1", "67.4%"),
    ("O=C(c1ccc(F)c(F)c1Nc1ccc(I)cc1F)N1CC(O)([C@@H]2CCCCN2)C1 + C=CC(=O)N1CCN(c2nc(OCC3CCCN3C)nc3c(F)c(-c4nc(N)cc(C)c4C(F)(F)F)c(Cl)cc23)C(C)C1", "72.4%"),
    ("CCC(CC)c1cc(NC2CCC(N)C2)n2nccc2n1 (stereo unspecified) + C#Cc1c(F)ccc2cc(O)cc(-c3ncc4c(N5CC6CCC(C5)N6)nc(OCC56CCCN5CC(F)C6)nc4c3F)c12", "103%"),
    ("C=CC(=O)N1CCN(c2nc(OCC3CCCN3C)nc3c(F)c(-c4nc(N)cc(C)c4C(F)(F)F)c(Cl)cc23)C(C)C1 (stereo unspecified) + C#Cc1c(F)ccc2cc(O)cc(-c3ncc4c(N5CC6CCC(C5)N6)nc(OCC56CCCN5CC(F)C6)nc4c3F)c12", "83.8%"),
    ("C[C@@H](NC(=O)c1ncnc(N)c1Cl)c1ncc(C(=O)Nc2cc(C(F)(F)F)c(Cl)cn2)s1 + C=CC(=O)N1CCN(c2nc(OCC3CCCN3C)nc3c(F)c(-c4nc(N)cc(C)c4C(F)(F)F)c(Cl)cc23)C(C)C1", "84.7%"),
    ("O=C(c1ccc(F)c(F)c1Nc1ccc(I)cc1F)N1CC(O)([C@@H]2CCCCN2)C1 + C#Cc1c(F)ccc2cc(O)cc(-c3ncc4c(N5CC6CCC(C5)N6)nc(OCC56CCCN5CC(F)C6)nc4c3F)c12", "82.3%"),
    ("C=CC(=O)Nc1cc(Nc2nccc(-c3cn(C)c4ccccc34)n2)c(OC)cc1N(C)CCN(C)C + C#Cc1c(F)ccc2cc(O)cc(-c3ncc4c(N5CC6CCC(C5)N6)nc(OCC56CCCN5CC(F)C6)nc4c3F)c12", "119%"),
    ("Nc1ccn(C2OC(CO)C(O)C2(F)F)c(=O)n1 (stereo unspecified) + C=CC(=O)N1CCN(c2nc(OCC3CCCN3C)nc3c(F)c(-c4nc(N)cc(C)c4C(F)(F)F)c(Cl)cc23)C(C)C1", "4.71%"),
    ("CC(Nc1ccc2c(c1)OCCn1cc(N3C(=O)OCC3C(F)F)nc1-2)C(N)=O (stereo unspecified) + C=CC(=O)N1CCN(c2nc(OCC3CCCN3C)nc3c(F)c(-c4nc(N)cc(C)c4C(F)(F)F)c(Cl)cc23)C(C)C1", "65%"),
]

###

// viability, T/C lookup, one value per entry
Test system: K12877-001-R-J1-PDC complex spheroid viability
Experiment: Anticancer human tumor K12877-001-R-J1-PDC cell line growth inhibition [RAS];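 also: tumour cells co-cultured with HUVEC and mesenchymal stem cells in spheroids; spheroids exposed to agents for one week before readout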
Conditions: second compound 0.316 µM; first compound 0.0316 µM; stronger effect = lower value

# compound, experimental-target, viability, T/C (%)
data = [
    ("CC(C)NCC(C(=O)N1CCN(c2ncnc3c2C(C)CC3O)CC1)c1ccc(Cl)cc1 (stereo not given) + C#Cc1c(F)ccc2cc(O)cc(-c3ncc4c(N5CC6CCC(C5)N6)nc(OCC56CCCN5CC(F)C6)nc4c3F)c12", "K12877-001-R-J1-PDC complex spheroid viability", 105),
    ("NC1c2ccccc2OC12CCN(c1cnc3c(N4CCCc5ncccc54)n[nH]c3n1)CC2 (stereo not given) + C#Cc1c(F)ccc2cc(O)cc(-c3ncc4c(N5CC6CCC(C5)N6)nc(OCC56CCCN5CC(F)C6)nc4c3F)c12", "K12877-001-R-J1-PDC complex spheroid viability", 98.4),
    ("O=C(c1ccc(F)c(F)c1Nc1ccc(I)cc1F)N1CC(O)([C@@H]2CCCCN2)C1 + C=CC(=O)N1CCN(c2nc(OCC3CCCN3C)nc3c(F)c(-c4nc(N)cc(C)c4C(F)(F)F)c(Cl)cc23)C(C)C1", "K12877-001-R-J1-PDC complex spheroid viability", 84.7),
    ("CC1(O)CCCC1n1c(=O)c(C(F)F)cc2cnc(NC3CCN(S(C)(=O)=O)CC3)nc21 (stereo not given) + C=CC(=O)N1CCN(c2nc(OCC3CCCN3C)nc3c(F)c(-c4nc(N)cc(C)c4C(F)(F)F)c(Cl)cc23)C(C)C1", "K12877-001-R-J1-PDC complex spheroid viability", 102),
    ("Cc1nc(N2CCC3(CC2)COC(C)C3N)c(CO)nc1Sc1ccnc(N)c1Cl (stereo not given) + C#Cc1c(F)ccc2cc(O)cc(-c3ncc4c(N5CC6CCC(C5)N6)nc(OCC56CCCN5CC(F)C6)nc4c3F)c12", "K12877-001-R-J1-PDC complex spheroid viability", 107),
]

###

Test system: K12877-001-R-J1-PDC complex spheroid viability
Test: Anticancer human tumor K12877-001-R-J1-PDC cell line growth inhibition [RAS];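 also: tumour cells co-cultured with HUVEC and mesenchymal stem cells in spheroids; spheroids exposed to agents for one week before readout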
Settings: second compound 0.0316 µM; first compound 0.316 µM; stronger effect = lower value
Mark 1 for viability, T/C under 80%, 0 if at or over.

# compound, experimental-target, class-label
records = [
    ("C[C@@H](NC(=O)c1ncnc(N)c1Cl)c1ncc(C(=O)Nc2cc(C(F)(F)F)c(Cl)cn2)s1 + C#Cc1c(F)ccc2cc(O)cc(-c3ncc4c(N5CC6CCC(C5)N6)nc(OCC56CCCN5CC(F)C6)nc4c3F)c12", "K12877-001-R-J1-PDC complex spheroid viability", 0),
    ("C=CC(=O)N1CCN(c2nc(OCC3CCCN3C)nc3c(F)c(-c4nc(N)cc(C)c4C(F)(F)F)c(Cl)cc23)C(C)C1 (stereo not given) + C#Cc1c(F)ccc2cc(O)cc(-c3ncc4c(N5CC6CCC(C5)N6)nc(OCC56CCCN5CC(F)C6)nc4c3F)c12", "K12877-001-R-J1-PDC complex spheroid viability", 0),
    ("CC(C)NCC(C(=O)N1CCN(c2ncnc3c2C(C)CC3O)CC1)c1ccc(Cl)cc1 (stereo not given) + C=CC(=O)N1CCN(c2nc(OCC3CCCN3C)nc3c(F)c(-c4nc(N)cc(C)c4C(F)(F)F)c(Cl)cc23)C(C)C1", "K12877-001-R-J1-PDC complex spheroid viability", 1),
    ("CC(Nc1ccc2c(c1)OCCn1cc(N3C(=O)OCC3C(F)F)nc1-2)C(N)=O (stereo not given) + C=CC(=O)N1CCN(c2nc(OCC3CCCN3C)nc3c(F)c(-c4nc(N)cc(C)c4C(F)(F)F)c(Cl)cc23)C(C)C1", "K12877-001-R-J1-PDC complex spheroid viability", 1),
]

###

// viability, T/C lookup, one value per entry
Test system: K12877-001-R-J1-PDC complex spheroid viability
Test: Anticancer human tumor K12877-001-R-J1-PDC cell line growth inhibition [RAS];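 also: tumour cells co-cultured with HUVEC and mesenchymal stem cells in spheroids; spheroids exposed to agents for one week before readout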
Conditions: second compound 10 µM; first compound 3.16 µM; stronger effect = lower value
Excerpt: RAS pathway inhibitors in Combinations in Complex Spheroids A high-throughput screen of multi-cell type tumor spheroids was designed to identify active combinations of RAS pathway inhibitors and targeted small molecules. Complex spheroids include a stromal component modeled by human endothelial cells (HUVEC) and fibroblasts modeled by human mesenchymal stem cells (MSCs). […] Compounds. […] If the clinical Cmax for an agent had not been determined, the highest concentration tested was 10 microM. […]

# molecule, viability, T/C [%]
rows = [
    ("C[C@@H](NC(=O)c1ncnc(N)c1Cl)c1ncc(C(=O)Nc2cc(C(F)(F)F)c(Cl)cn2)s1 + C#Cc1c(F)ccc2cc(O)cc(-c3ncc4c(N5CC6CCC(C5)N6)nc(OCC56CCCN5CC(F)C6)nc4c3F)c12", 107),
    ("CC(=O)OC12COC1CC(O)C1(C)C(=O)C(O)C3=C(C)C(OC(=O)C(O)C(NC(=O)OC(C)(C)C)c4ccccc4)CC(O)(C(OC(=O)c4ccccc4)C21)C3(C)C (stereo not given) + C#Cc1c(F)ccc2cc(O)cc(-c3ncc4c(N5CC6CCC(C5)N6)nc(OCC56CCCN5CC(F)C6)nc4c3F)c12", 5.73),
    ("NC1c2ccccc2OC12CCN(c1cnc3c(N4CCCc5ncccc54)n[nH]c3n1)CC2 (stereo not given) + C#Cc1c(F)ccc2cc(O)cc(-c3ncc4c(N5CC6CCC(C5)N6)nc(OCC56CCCN5CC(F)C6)nc4c3F)c12", 64.9),
    ("Cc1nc(N2CCC3(CC2)COC(C)C3N)c(CO)nc1Sc1ccnc(N)c1Cl (stereo not given) + C#Cc1c(F)ccc2cc(O)cc(-c3ncc4c(N5CC6CCC(C5)N6)nc(OCC56CCCN5CC(F)C6)nc4c3F)c12", 86.9),
    ("CC(Nc1ccc2c(c1)OCCn1cc(N3C(=O)OCC3C(F)F)nc1-2)C(N)=O (stereo not given) + C#Cc1c(F)ccc2cc(O)cc(-c3ncc4c(N5CC6CCC(C5)N6)nc(OCC56CCCN5CC(F)C6)nc4c3F)c12", 66.5),
]
